System: hN + hpA co-culture (H1 iNGN2 human neurons + human primary astrocytes);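 further: immunostained co-cultures imaged by high-content microscopy, Z-score per plate against mean and SD of 0.1% DMSO wells, compounds added on differentiation day 18, analysed day 21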
Test: presynaptic density (SYNAPSIN1 puncta per MAP2 neurite area), Z-score vs DMSO controls; higher = more presynaptic puncta (synapse-promoting)
Details: 3 µM; 72 h
So I've got a bunch of compounds here, and I need their presynaptic density (Z-score) values.
// return a plain number; no unit text

Form: compound = CCN[C@H]1CN(CCCOC)S(=O)(=O)c2sc(S(N)(=O)=O)cc21 [Brinzolamide] ; presynaptic density (Z-score) = -0.474

Form: compound = O=C(NCc1ccccc1)c1csc(Nc2ccncn2)n1 [Thiazovivin] ; presynaptic density (Z-score) = 0.74

Form: compound = CCCSc1nc(N[C@@H]2C[C@H]2c2ccc(F)c(F)c2)c2nnn([C@@H]3C[C@H](OCCO)[C@@H](O)[C@H]3O)c2n1 [Ticagrelor] ; presynaptic density (Z-score) = -0.848

Form: compound = `Cc1c(NC(=O)c2ccc(C(C)(C)C)cc2)cccc1-c1cn(C)c(=O)c(Nc2ccc(C(=O)N3CCOCC3)cc2)n1` ; presynaptic density (Z-score) = 0.702

Form: compound = `NC(=O)c1cccc(-c2cccc(OC(=O)NC3CCCCC3)c2)c1` ; presynaptic density (Z-score) = -1.17
